Reference source: the supplement of paper PMC10065799

Biological target: EPHB1 (UniProt P54762)
Sequence (P54762 whole entry, looked up): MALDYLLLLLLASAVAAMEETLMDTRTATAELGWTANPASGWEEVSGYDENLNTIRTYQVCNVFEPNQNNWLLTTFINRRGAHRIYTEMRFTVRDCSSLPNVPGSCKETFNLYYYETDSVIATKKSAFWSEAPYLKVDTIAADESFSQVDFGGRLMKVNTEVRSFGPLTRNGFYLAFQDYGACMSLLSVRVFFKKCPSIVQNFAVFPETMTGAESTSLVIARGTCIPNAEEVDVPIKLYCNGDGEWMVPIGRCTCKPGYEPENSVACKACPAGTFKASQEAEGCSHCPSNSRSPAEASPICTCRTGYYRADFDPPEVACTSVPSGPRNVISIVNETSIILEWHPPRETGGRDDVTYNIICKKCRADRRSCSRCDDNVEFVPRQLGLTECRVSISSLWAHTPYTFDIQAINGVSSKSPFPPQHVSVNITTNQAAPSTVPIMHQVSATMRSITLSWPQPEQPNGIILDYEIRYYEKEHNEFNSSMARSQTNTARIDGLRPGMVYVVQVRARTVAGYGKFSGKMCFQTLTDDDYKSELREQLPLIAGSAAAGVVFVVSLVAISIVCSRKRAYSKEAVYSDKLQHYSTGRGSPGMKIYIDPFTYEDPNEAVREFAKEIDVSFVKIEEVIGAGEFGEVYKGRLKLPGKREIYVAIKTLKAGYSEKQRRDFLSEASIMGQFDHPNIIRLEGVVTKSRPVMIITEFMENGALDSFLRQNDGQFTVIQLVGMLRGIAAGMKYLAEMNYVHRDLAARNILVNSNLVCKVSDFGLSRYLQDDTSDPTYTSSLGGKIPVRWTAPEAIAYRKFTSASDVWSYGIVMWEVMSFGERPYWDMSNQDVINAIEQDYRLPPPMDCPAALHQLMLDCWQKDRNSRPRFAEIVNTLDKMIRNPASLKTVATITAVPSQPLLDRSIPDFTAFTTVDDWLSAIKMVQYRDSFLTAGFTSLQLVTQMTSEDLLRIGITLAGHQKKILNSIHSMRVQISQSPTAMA
Assay: phosphorylation enrichment, bacterial display (enrichment ratio); higher = better substrate or ligand; peptides without Tyr show the background;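 further: 11-residue human phosphosite peptides and single-mutation variants displayed on the E. coli surface, counted by deep sequencing, each peptide's frequency after selection divided by its frequency in the unselected input library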;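 further: frequency after pTyr selection over input frequency; kinase dosed for 20-30% of maximal phosphorylation in three min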
METRIC_NAME: phosphorylation enrichment
The response must contain the number and no unit.

{"columns": ["SEQ", "VALUE_REPORTED"],
 "data": [
  ["YSTSPYLLEAA [BRIP1_Y921]", 0.544],
  ["LIDGYYRLTED [JAK2_Y373_A377E]", 0.708],
  ["GLGGGCGGASG [KRT8_Y54_Y54C]", 0.465]
]}

So for LLQKTYNYNVL [SLC4A1_Y553_P548L] , the logged phosphorylation enrichment turned out to be 0.745

So for SSSPTYLDLPF [GLI3_Y168_P169L] , the logged phosphorylation enrichment turned out to be 8.94

So for MYDKEYYSVHN [MET_Y1234] , the logged phosphorylation enrichment turned out to be 0.965

So for LFQAKYQIRYR [CRLF1_Y272] , the logged phosphorylation enrichment turned out to be 0.79

So for RNEAFYDTFST [EFCAB3_Y372_S370A] , the logged phosphorylation enrichment turned out to be 1.98

So for QMVGMYAFSYM [AVPR2_Y124_S126F] , the logged phosphorylation enrichment turned out to be 2.45

So for LERYIYNREEY [HLA-DPB1_Y59_F64Y] , the logged phosphorylation enrichment turned out to be 0.568

So for ATGMEYLASQK [FGFR2_Y616_R612T] , the logged phosphorylation enrichment turned out to be 0.479

So for HCFNSYTFPRL [PAK7_Y316_S312C_YF] , the logged phosphorylation enrichment turned out to be 0.752

So for FYVVRYCWLRR [MPZ_Y181] , the logged phosphorylation enrichment turned out to be 0.496

So for HRAVEYLLTGI [RAD23A_Y197] , the logged phosphorylation enrichment turned out to be 0.846

So for EPTPGYEVGQR [TSC2_Y1788] , the logged phosphorylation enrichment turned out to be 0.472

So for STKELYEKYMI , the logged phosphorylation enrichment turned out to be 0.504

So for YCRHNYGVGES [HLA-DRB1_Y112_V115G] , the logged phosphorylation enrichment turned out to be 0.492

So for SLGKGYYDGGC [MC4R_Y35_S36Y] , the logged phosphorylation enrichment turned out to be 0.65

So for QKLPLYILENN [VPS13B_Y2774_S2773L] , the logged phosphorylation enrichment turned out to be 0.942

###

phosphorylation enrichment listing for selected sequences.
Target: FGFR3 (UniProt P22607)
Sequence (P22607 whole entry, looked up): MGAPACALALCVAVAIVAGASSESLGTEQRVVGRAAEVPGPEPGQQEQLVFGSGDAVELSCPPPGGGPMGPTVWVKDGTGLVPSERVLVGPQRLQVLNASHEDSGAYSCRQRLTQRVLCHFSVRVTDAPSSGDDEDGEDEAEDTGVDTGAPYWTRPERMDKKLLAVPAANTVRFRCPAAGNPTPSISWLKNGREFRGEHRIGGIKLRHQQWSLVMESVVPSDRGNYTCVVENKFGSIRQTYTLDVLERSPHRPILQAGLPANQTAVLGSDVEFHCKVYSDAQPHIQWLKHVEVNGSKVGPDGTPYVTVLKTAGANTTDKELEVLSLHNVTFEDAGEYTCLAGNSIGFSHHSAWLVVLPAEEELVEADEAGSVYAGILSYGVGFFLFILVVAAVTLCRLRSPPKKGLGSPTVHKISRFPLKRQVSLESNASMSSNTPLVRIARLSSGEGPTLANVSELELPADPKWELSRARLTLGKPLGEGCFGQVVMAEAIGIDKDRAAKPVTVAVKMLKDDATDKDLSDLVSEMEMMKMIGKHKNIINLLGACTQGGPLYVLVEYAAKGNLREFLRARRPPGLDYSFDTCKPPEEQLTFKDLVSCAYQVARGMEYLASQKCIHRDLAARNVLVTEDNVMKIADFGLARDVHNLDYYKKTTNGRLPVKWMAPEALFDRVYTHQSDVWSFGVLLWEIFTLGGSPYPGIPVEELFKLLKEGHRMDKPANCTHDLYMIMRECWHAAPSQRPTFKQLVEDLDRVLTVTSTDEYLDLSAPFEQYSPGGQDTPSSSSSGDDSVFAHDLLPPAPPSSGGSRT
Test: phosphorylation enrichment, bacterial display (enrichment ratio); higher = better substrate or ligand; peptides without Tyr show the background
The response must contain the number and no unit.

{"columns": ["SEQ", "phosphorylation enrichment"],
 "data": [
  ["QLRPGYIPIPV [BAG3_Y93]", 1.09],
  ["LRSELYSLIAR [PHIP_Y16_F17S]", 0.811],
  ["IGKDLYANNVL [ACTA2_Y296_R292G]", 0.64],
  ["SMAKFYASEIA [ACADSB_Y373_YF]", 0.604],
  ["FSKRIYKGMVA [PCDH15_Y931]", 0.367],
  ["RLRKYYLGKYL [KLB_Y906]", 0.528],
  ["DPYHVYIKNHV [KCNE3_Y95_R99H]", 0.533],
  ["ATQDDYVLEVR [PTPRZ1_Y2179]", 0.701],
  ["ARDVIYIIIPA [FRKtide_2014]", 2],
  ["KVQVSYKGDTK [HSPA1A_Y107_E110D]", 0.378]
]}

So for IQVNAYFSPIH [ADSL_Y432_D430N] , the logged phosphorylation enrichment turned out to be 0.795

So for GPIIRYDLGGA [CYP11B1_Y81_F79I] , the logged phosphorylation enrichment turned out to be 0.498

So for GVSFIYTIDGS [DCX_Y105_R102S_YF] , the logged phosphorylation enrichment turned out to be 0.753

So for RSRSSYTHGLN [MYCT1_Y116] , the logged phosphorylation enrichment turned out to be 0.88

So for ALAPKYHGGGG [HBB_Y146_H144P] , the logged phosphorylation enrichment turned out to be 0.248
